Method Summary: growth suppression of yeast trafficking mutant, preliminary HTS, modulators of trafficking downstream of Golgi apparatus project, 1536-format plate, OD 615 nm (AID 637)
Setup Conditions: yeast transport mutant growth, absorbance 615 nm, 18 h; active compounds read high

>  <Structure>
Cc1c(C(=O)N2CCN(c3ccccc3)CC2)sc2ncnc(N3CCN(c4ccccc4)CC3)c12

>  <inhibition [%]>
-4.59

$$$$
>  <Structure>
COc1ccccc1-c1nc(SCc2ccccn2)n[nH]1

>  <inhibition [%]>
-2.06

$$$$
>  <Structure>
COc1cc2c3c(c1)/C(=C1/SC(NC(C)=O)=NC1=O)C(=O)N3C(C)(C)C=C2C

>  <inhibition [%]>
-1.77

$$$$
>  <Structure>
CCn1cc(C(=O)O)c(=O)c2ccc(C)nc21

>  <inhibition [%]>
-3.83

$$$$
>  <Structure>
Cc1ccc(NC(=O)c2ccccc2F)nc1

>  <inhibition [%]>
1.11

$$$$
>  <Structure>
CCOC(=O)Nc1nnc(-c2ccccc2OC)s1

>  <inhibition [%]>
-4.68

$$$$
>  <Structure>
CCOC(=O)c1cc(-c2ccc(Cl)s2)nc2c1c(C)nn2C

>  <inhibition [%]>
-0.82

$$$$
>  <Structure>
CC(=O)Nc1nc(C)c(-c2csc(Nc3ccc(O)cc3)n2)s1

>  <inhibition [%]>
-6.13

$$$$
>  <Structure>
CC(=O)[C@@]1(O)CC[C@H]2[C@@H]3C[C@H](C)C4=CC(=O)CC[C@]4(C)[C@H]3CC[C@@]21C

>  <inhibition [%]>
-2.67

$$$$
>  <Structure>
COC(=O)CCC(=O)CN

>  <inhibition [%]>
5.67

$$$$
>  <Structure>
CCN(CC)S(=O)(=O)c1ccc(C(=O)N2CCN=C2SCc2cccnc2)cc1

>  <inhibition [%]>
-3.02

$$$$

----------
Method Summary: growth inhibitors of H69AR lung tumor, primary screen, human, duplicate replicates (AID 580);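 further: 100% = mean luminescence of untreated wells and 0% = no signal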
Setup Conditions: H69AR lung tumor cells viability, ATP luminescence, 72 h; at 10 µM; active compounds read low
Reported viability values are given for each entry in this list.

>  <Molecule>
CCOC(=O)C1CCN(C(=O)CCCCn2c(=O)[nH]c3ccccc3c2=O)CC1

>  <viability (%)>
101

$$$$
>  <Molecule>
COC(=O)c1ccc(COC(=O)c2c(C)nn(Cc3ccccc3Cl)c2Cl)o1

>  <viability (%)>
86.2

$$$$
>  <Molecule>
O=C(c1cccc2c1C(=O)N(Cc1cccnc1)C2)N1CCN(c2ccccc2)CC1

>  <viability (%)>
93.3

$$$$
>  <Molecule>
Cc1ccc2c(c1)CCCN2C(=O)c1ccc2c(c1)OCO2

>  <viability (%)>
101

$$$$
>  <Molecule>
COc1cccc(C=Nc2ccc3c(c2)OCCO3)c1O

>  <viability (%)>
83

$$$$
>  <Molecule>
Cc1nc(-c2ccccc2)sc1C(N)=O

>  <viability (%)>
94.4

$$$$
>  <Molecule>
CN1CCN(C2=Nc3ccccc3Oc3ccc(Cl)cc32)CC1

>  <viability (%)>
73.6

$$$$
>  <Molecule>
CC(C)CN(C(=O)c1ccc(=O)n(C)n1)c1nc2ccccc2s1

>  <viability (%)>
90.2

$$$$
>  <Molecule>
CC1CN(CC(O)COc2ccccc2C(C)(C)C)CC(C)O1 (stereo unspecified)

>  <viability (%)>
78

$$$$
>  <Molecule>
O=C(Nc1ccc2oc(Cc3ccc(Cl)cc3)nc2c1)c1cccnc1

>  <viability (%)>
37.9

$$$$
>  <Molecule>
CN(C)CCOC(c1ccccc1)c1ccccc1

>  <viability (%)>
87.6

$$$$
>  <Molecule>
CC(=O)Nc1sc2c(c1C#N)CCCCC2

>  <viability (%)>
95.6

$$$$
>  <Molecule>
COc1ccc(N(CC(=O)Nc2ccc(F)c(Cl)c2)S(=O)(=O)c2c(C)noc2C)cc1

>  <viability (%)>
81.5

$$$$
>  <Molecule>
CCOC(=O)Cn1nnnc1CN(Cc1ccc(OC)cc1)Cc1cc2cc(C)cc(C)c2[nH]c1=O

>  <viability (%)>
89.4

$$$$
>  <Molecule>
CCOC(=O)Cc1csc(NC(=O)CSc2nnc(C3CC3)n2C)n1

>  <viability (%)>
97.9

$$$$
>  <Molecule>
Cn1nnnc1SCC1=C(C(=O)O)N2C(=O)[C@@H](NC(=O)[C@H](O)c3ccccc3)[C@H]2SC1

>  <viability (%)>
99.2

$$$$
>  <Molecule>
COC(=O)c1nnn(-c2ccccc2)c1N

>  <viability (%)>
103

$$$$
>  <Molecule>
CCOC(=O)n1c(=O)oc2cc(S(=O)(=O)N3CCCCC3)ccc21

>  <viability (%)>
90.2

$$$$
>  <Molecule>
O=C(c1ccccc1)N1CCN(CC2CC=CCC2)CC1 (stereo unspecified)

>  <viability (%)>
96.1

$$$$
>  <Molecule>
COc1ccc(/C=C/C(=O)Nc2ccccc2C(=O)O)cc1OC

>  <viability (%)>
94.7

$$$$
>  <Molecule>
O=C(NCC(=O)N(CCc1ccccc1)C(C(=O)NC1CCCC1)c1cccnc1)c1ccco1 (stereo unspecified)

>  <viability (%)>
99.8

$$$$
>  <Molecule>
CCN1CCCC1CNCc1ccc(Cl)cc1Cl (stereo unspecified)

>  <viability (%)>
104

$$$$
>  <Molecule>
O=C(NCCCN1CCCC1=O)C1CCN(S(=O)(=O)N2CCOCC2)CC1

>  <viability (%)>
100

$$$$
>  <Molecule>
C=CCNC(=O)c1ccc(Cl)cc1Cl

>  <viability (%)>
97

$$$$
>  <Molecule>
N=c1nc(N2CCCCC2)cc(N)n1O

>  <viability (%)>
99.8

$$$$
>  <Molecule>
Cn1c(=O)n(CCN2CCOCC2)c(=O)c2c1nc1n2CCN1c1ccccc1

>  <viability (%)>
67.9

$$$$
>  <Molecule>
CCOC(=O)c1ccc(NS(=O)(=O)c2ccc(SC)cc2)cc1

>  <viability (%)>
108

$$$$
>  <Molecule>
Cc1ccc(F)cc1NC(=O)C1CCCN(c2ncccn2)C1 (stereo unspecified)

>  <viability (%)>
88.7

$$$$
>  <Molecule>
c1cc(C(c2nnnn2C2CCCC2)N2CCOCC2)ccn1 (stereo unspecified)

>  <viability (%)>
91.9

$$$$
>  <Molecule>
COc1cc(NC(=O)Nc2cccc(Cl)c2)c(OC)cc1NC(=O)CN1CCCCC1

>  <viability (%)>
3.06

$$$$
>  <Molecule>
Cc1ccc2c(c1)N(CC(=O)Nc1ccc3c(c1)OCCO3)C(=O)CO2

>  <viability (%)>
105

$$$$
>  <Molecule>
CC(=O)OC[C@H]1O[C@@H](n2ncc(=O)[nH]c2=O)[C@H](OC(C)=O)[C@@H]1OC(C)=O

>  <viability (%)>
91.3

$$$$
>  <Molecule>
CC(C)(C)NC(=O)C(Cc1ccccc1)NS(=O)(=O)c1cccc2nsnc12 (stereo unspecified)

>  <viability (%)>
87.8

$$$$
>  <Molecule>
Cc1ccc2cc(CN(CC(C)C)C(=O)C3CCCO3)c(=O)[nH]c2c1 (stereo unspecified)

>  <viability (%)>
102

$$$$
>  <Molecule>
CCCc1cc(Nc2cccc(OC)c2)n2ncnc2n1

>  <viability (%)>
81.2

$$$$
>  <Molecule>
O=S(=O)(NCC1CCCO1)c1ccc2c(c1)OCCO2 (stereo unspecified)

>  <viability (%)>
97.6

$$$$
>  <Molecule>
CN(C)CCCN1c2ccccc2Sc2ccccc21

>  <viability (%)>
74.7

$$$$
>  <Molecule>
CCOC(=O)N1CCC(N(CCCOC)C(=O)Nc2ccc(CC)cc2)CC1

>  <viability (%)>
98.9

$$$$
>  <Molecule>
Cc1ccc(OCC(O)Cn2c(NCCc3ccccc3)nc3c2c(=O)[nH]c(=O)n3C)cc1 (stereo unspecified)

>  <viability (%)>
93.9

$$$$
>  <Molecule>
COc1ccccc1CCNC(=O)C1CCCO1 (stereo unspecified)

>  <viability (%)>
98.9

$$$$
>  <Molecule>
CC(C)NCC(O)COc1ccc(CCOCC2CC2)cc1 (stereo unspecified)

>  <viability (%)>
95.8

$$$$
>  <Molecule>
COc1ccc(OC)c(NC(=O)CS(=O)(=O)c2ccccc2)c1

>  <viability (%)>
86.3

$$$$
>  <Molecule>
Cn1c(=O)c2c(nc(Br)n2CCSc2nnnn2-c2ccccc2)n(C)c1=O

>  <viability (%)>
80.4

$$$$
>  <Molecule>
CCCC1c2ccc(C)n2CCN1C(=O)Nc1ccccc1Cl (stereo unspecified)

>  <viability (%)>
93.5

$$$$
>  <Molecule>
CC(=O)NC1CC2CCCC(C1)N2CC(=O)Nc1ccccc1 (stereo unspecified)

>  <viability (%)>
96.7

$$$$
>  <Molecule>
CCN(C(=O)c1ccnc(C(C)(C)C)c1)c1ccccc1

>  <viability (%)>
79.2

$$$$

Attribution: PubChem BioAssay
